This collection of values is drawn from ChEMBL document CHEMBL1147525.

- Tested Target: DNA nucleotidylexotransferase (Homo sapiens, UniProt P04053)
- Sequence (P04053 whole entry): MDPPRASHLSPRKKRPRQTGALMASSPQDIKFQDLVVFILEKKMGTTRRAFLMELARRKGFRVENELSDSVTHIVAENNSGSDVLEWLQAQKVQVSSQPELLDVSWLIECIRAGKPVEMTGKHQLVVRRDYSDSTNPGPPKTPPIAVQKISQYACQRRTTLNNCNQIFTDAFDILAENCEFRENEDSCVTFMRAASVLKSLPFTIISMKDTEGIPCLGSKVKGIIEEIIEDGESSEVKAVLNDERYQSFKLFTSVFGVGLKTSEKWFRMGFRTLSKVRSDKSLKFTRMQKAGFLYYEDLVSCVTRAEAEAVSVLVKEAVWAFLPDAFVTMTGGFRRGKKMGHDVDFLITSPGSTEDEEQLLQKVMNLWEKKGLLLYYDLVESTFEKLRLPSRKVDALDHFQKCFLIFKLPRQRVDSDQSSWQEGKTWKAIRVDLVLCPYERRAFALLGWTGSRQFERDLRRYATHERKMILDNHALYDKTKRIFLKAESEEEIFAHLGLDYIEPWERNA
Quantity Measured: pIC50
Scale: negative log10 of molar concentration, which is what pIC50 denotes.

Request: Please supply the value of reported pIC50 for the item CCCCCCCCCCCCCCCCC1=C[C@H](C(=O)O)[C@H]2CC(C(=O)O)=C(CCCCCCCCCCCCCCCC)[C@H]2[C@H]1C(=O)OC (racemic)
Result: 5.60

###

- Tested Target: Nucleic Acid
- Protocol Text: Inhibitory activity against mammalian DNA polymerase beta
- Type: nucleic-acid assay
Quantity Measured: pIC50
The read-out pIC50 is expressed as -log10 of concentration in moles per litre.

Request: Look up and report measured pIC50 for this entry: CCCCCCCCCCCCCCCCC1=C(C(=O)OC)C(=O)CC1
Result: 3.97

Request: For the molecule CCCCCCCCCCCCCCCC[C@]1(O)C=CC(=O)[C@H]1C(=O)OC (racemic) , give its measured pIC50 value.
Result: 4.24

Request: Supply recorded pIC50 for CCCCCCCCCCCCCCCC[C@H]1C=CC(=O)[C@@H]1C(=O)OC (racemic) here.
Result: 4.05

Request: Answer with the recorded pIC50 for the molecule listed here: CCCCCCCCCCCCCCCCC1=C[C@H](C(=O)O)[C@H]2CC(C(=O)O)=C(CCCCCCCCCCCCCCCC)[C@H]2[C@H]1C(=O)OC (racemic)
Result: 5.49

Request: Report pIC50, nothing else, for this molecule: CCCCCCCCCCCCCCCC[C@]1(OCOC)C=CC(=O)[C@H]1C(=O)OC (racemic)
Result: 5.03

###

- Tested Target: Nucleic Acid
- Protocol Text: Inhibitory activity against mammalian DNA polymerase alpha
- Type: nucleic-acid assay
Quantity Measured: IC50

Request: Specify reported IC50 for the compound shown: CCCCCCCCCCCCCCCCC1=C[C@H](C(=O)O)[C@H]2CC(C(=O)O)=C(CCCCCCCCCCCCCCCC)[C@H]2[C@H]1C(=O)OC (racemic)
Result: 1.9 µM

Request: Quote IC50 reported for CCCCCCCCCCCCCCCC[C@]1(O)C=CC(=O)C1 (racemic) please.
Result: > 200 µM

Request: Tell me its IC50 given CCCCCCCCCCCCCCCC[C@]1(OCOC)C=CC(=O)[C@H]1C(=O)OC (racemic) as the entry.
Result: 5.9 µM

Request: Please indicate IC50 recorded for CCCCCCCCCCCCCCCC[C@]1(O)C=CC(=O)[C@H]1C(=O)OC (racemic) [UNTENONE A]
Result: 4.3 µM

Request: Name the recorded IC50 of the compound listed here: CCCCCCCCCCCCCCCC[C@H]1C=CC(=O)[C@@H]1C(=O)OC (racemic)
Result: 20 µM

Request: Give the reported IC50 for this compound. CCCCCCCCCCCCCCCCC1=C(C(=O)OC)C(=O)CC1
Result: 17 µM
